test system: HSL; assay: HSL mRNA expression in adipocytes (real-time PCR); format: cell-based, human; conditions: adipocytes, 250 nM oligomeric compound, day nine post-transfection, relative to control (1.0); Table 15
In the oligonucleotide strings, read from the 5' end, every base follows the letter of its sugar. An asterisk marks phosphorothioate; unmarked linkages are phosphodiester. Other units and linkages are bracketed, terminal groups are in braces. A string of capitals states the bases alone. e = 2'-O-(2-methoxyethyl) (MOE); [5mC] = 5-methylcytosine
Assign a class from recorded HSL (mRNA expression); defined classes: low (below 0.8), medium (0.8 to below 1), high (1 or more)

Query string: In plain terms, what class is 327954 (antisense eA*e[5mC]*eA*eA*eA*eG*eT*eT*e[5mC]*eT*eG*eT*eG*eA*eT*eG*e[5mC]*eA*e[5mC]*eT*eG*eA) [compound 327954] ?
Result string: high

Query string: Hi, small favor: classify 327889 (antisense eG*eT*eG*eG*eT*eA*eA*eT*e[5mC]*e[5mC]*e[5mC]*eT*eG*eG*e[5mC]*eA*eA*eT*eG*eT*eG*eA*eT) [compound 327889] by its HSL (mRNA expression) when you get a moment.
Result string: low

Query string: Band for 327892 (antisense eA*e[5mC]*eT*eT*eT*e[5mC]*eG*eG*eT*eT*eA*eT*e[5mC]*eT*eA*eG*e[5mC]*eT*eT*eT*eA) [compound 327892] ?
Result string: low

Query string: Dear colleague, I would appreciate it if you could identify the bin for 327901 (antisense eT*eG*eA*eG*e[5mC]*eT*eA*e[5mC]*eA*eG*eT*eG*e[5mC]*eT*eT*e[5mC]*eA*eT*e[5mC]*eT*e[5mC]*eA) [compound 327901] and reply at your convenience.
Result string: low

Query string: Class label required: 327878 (antisense e[5mC]*eT*eA*eG*eT*eG*eG*eT*e[5mC]*e[5mC]*eT*eA*eA*eA*e[5mC]*eA*eT*eT*eT*e[5mC]*eA*e[5mC]) [compound 327878]
Result string: medium

Query string: The entry to classify is 327905 (antisense e[5mC]*eA*eG*eA*e[5mC]*eT*e[5mC]*e[5mC]*eG*eG*eT*eG*eG*eA*eA*eT*eG*eA*eA*eG*eG*eA) [compound 327905] ; which class holds it?
Result string: high

Query string: Returns: class label. Input: 327933 (antisense eA*eA*eG*eG*eG*eA*eT*eT*e[5mC]*e[5mC]*eT*eG*eG*eG*eA*eA*eA*eA*e[5mC]*eT*eG*eG*eA*e[5mC]) [compound 327933]
Result string: high

Query string: Using the reported HSL (mRNA expression), which band applies to 327903 (antisense eA*eA*e[5mC]*eT*eA*eT*eA*e[5mC]*eA*eA*e[5mC]*e[5mC]*eT*eA*e[5mC]*eT*eA*e[5mC]*e[5mC]*eT*e[5mC]*eA) [compound 327903] ?
Result string: high

Query string: Could you place 327890 (antisense eA*eG*e[5mC]*eA*e[5mC]*eA*eA*eA*e[5mC]*eT*eA*e[5mC]*eT*eA*e[5mC]*e[5mC]*eT*e[5mC]*eA) [compound 327890] in its proper category? Many thanks.
Result string: medium
